# Experiment notes: chemical genetic growth profiling, strain panel (AID 1159580);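 further: tested at 20 µM; growth read once vehicle control cultures reached saturation at 30 °C; 1 = growth at the plate median or of vehicle wells; lower values mean less growth of the strain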
# Test parameters: S. cerevisiae deletion strains, growth OD, locus YLR384C, strain iki3, hits give low values
Among all 5,500 compounds or so, about 2,000 (36%) were called active. Inconclusive results (about 18%) are left out. Some of the results follow.
# maps each entry to its normalized growth
Write no unit; give the number alone.

Reference set (6 entries):
{"Compound": "NC(N)=Nc1nc(CSCCC(N)=NS(N)(=O)=O)cs1", "normalized growth": 0.963}
{"Compound": "c1ccc(CC2=NCCN2)cc1", "normalized growth": 1.03}
{"Compound": "CCc1ccc(CCOc2ccc(CC3SC(=O)NC3=O)cc2)nc1 (configuration not stated)", "normalized growth": 1.01}
{"Compound": "COc1ccc2c(c1)C1(C)CCC(=O)CC1CC2 (configuration not stated)", "normalized growth": 1.01}
{"Compound": "c1ccc(CN(CC2=NCCN2)c2ccccc2)cc1", "normalized growth": 1.02}
{"Compound": "CCCCCC(=O)O[C@]1(C(C)=O)CCC2C3CCC4=CC(=O)CC[C@]4(C)C3CC[C@@]21C (some centres not stated)", "normalized growth": 0.996}

Per the records, this compound ( CC(=O)[C@H]1CCC2C3C[C@H](C)C4=CC(=O)CC[C@]4(C)C3[C@@H](O)C[C@@]21C (some centres not stated) ) has normalized growth equal to 0.987

---

# Experiment notes: chemical genetic growth profiling, strain panel (AID 1159580)
# Test parameters: S. cerevisiae deletion strains, growth OD, locus YBR021W, strain FUR4, hits give low values
The whole screen tested about 5,500 compounds, of which about 2,000 (36%) were called active. About 18% were inconclusive and are not listed. The list shows a part of the results.
Each entry below lists one item and its recorded normalized growth value.
Quick one: just the number, no unit, thanks!

Would you please look over these solved cases?
{"Molecule": "CC(=O)O[C@@](C)(CCC=C(C)C)C1CC=C(C)CC1 (stereo partly drawn)", "normalized growth": 1.03}
{"Molecule": "CCC1(c2ccc(N)cc2)CCC(=O)NC1=O (stereo not drawn)", "normalized growth": 1.01}
{"Molecule": "CNC1(C)C2CCC(C2)C1(C)C (stereo not drawn)", "normalized growth": 1.03}
{"Molecule": "O[C@H]1C=C2CCN3Cc4cc5c(cc4C(C23)[C@@H]1O)OCO5 (stereo partly drawn)", "normalized growth": 1.05}
{"Molecule": "O=[N+]([O-])O[C@H]1CO[C@H]2[C@@H]1OC[C@H]2O[N+](=O)[O-]", "normalized growth": 1.01}

The measured normalized growth associated with CCCCCC(C)N (stereo not drawn) reads 1.01

Input O=C(O)C1CC([C@@H]2CCCCN2)CN2CCCCC12 (stereo partly drawn) . Output normalized growth: 1.08

---

# Experiment notes: chemical genetic growth profiling, strain panel (AID 1159580)
# Test parameters: S. cerevisiae deletion strains, growth OD, locus YLL041C, strain sdh2
The whole screen tested about 5,500 compounds, of which about 2,000 (36%) were called active. Roughly 18% stayed inconclusive and do not appear here. Cut-off read from the data, not from the text of the source: active = normalized growth mostly below about 0.91 (no sharp cut-off); inconclusive = no clear call, values can overlap the other calls; inactive = mostly above about 0.92. The list shows a part of the results.
Could you please pick one outcome from this set? active, inactive

// below: answered compounds
{"Compound": "CCCCCCCC/C=C/CCCCCCCCOP(=O)([O-])OCC[N+](C)(C)C", "Category": "active"}
{"Compound": "CC1(C)S[C@@H]2[C@H](NC(=O)[C@H](NC(=O)N3CCNC3=O)c3ccccc3)C(=O)N2C1C(=O)O (stereo not given in full)", "Category": "inactive"}
{"Compound": "CCC1(c2ccccc2)C(=O)NCNC1=O", "Category": "inactive"}

Task: Short answer needed: outcome of this test for "CCCCCCCCCCCCCCCCOP(=O)([O-])OCC[N+](C)(C)C" ?
Result: active

Task: Which result was noted for this compound in the test: C[N+](C)(C)CCOP(=O)([O-])OP(=O)(O)OC[C@H]1OC(n2ccc(N)nc2=O)[C@H](O)[C@@H]1O (stereo not given in full)
Result: inactive

---

# Experiment notes: chemical genetic growth profiling, strain panel (AID 1159580)
# Test parameters: S. cerevisiae deletion strains, growth OD, locus YJL187C, strain SWE1
Among all 5,500 compounds or so, about 2,000 (36%) were called active. Roughly 18% stayed inconclusive and do not appear here. Rule as the data show it: active = normalized growth mostly below about 0.91 (no sharp cut-off); inconclusive = no clear call, values can overlap the other calls; inactive = mostly above about 0.92. The list shows a part of the results.
Tick one outcome: 1 (active), -1 (inactive)

Below are worked cases with known answers.
{"Compound": "COc1c2c(c(CC=C(C)C)c3oc(=O)c(-c4ccc(O)cc4)c(O)c13)OC(C)(C)C=C2", "Category": 1}
{"Compound": "O=C(O)c1cc(=O)c2ccc(Cl)cc2[nH]1", "Category": -1}
{"Compound": "CC(C(=O)O)c1ccc2c(c1)[nH]c1ccc(Cl)cc12 (stereo not given)", "Category": -1}
{"Compound": "CCN(CC)C(=S)SSC(=S)N(CC)CC", "Category": 1}

Now consider a different compound.
Task: Which outcome did this test record for the compound CO[C@H]1C[C@H](O[C@H]2[C@H](C)[C@@H](OC3O[C@H](C)C[C@H](N(C)C)[C@H]3O)[C@@H](C)C[C@]3(CO3)C(=O)[C@H](C)[C@@H](O)[C@@H](C)[C@@H](C)OC(=O)[C@@H]2C)O[C@@H](C)[C@@H]1O (stereo not given in full) ?
Result: -1

---

# Experiment notes: chemical genetic growth profiling, strain panel (AID 1159580);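 further: tested at 20 µM; growth read once vehicle control cultures reached saturation at 30 °C; 1 = growth at the plate median or of vehicle wells; lower values mean less growth of the strain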
# Test parameters: S. cerevisiae deletion strains, growth OD, locus YOR290C, strain snf2, hits give low values
The whole screen tested about 5,500 compounds, of which about 2,000 (36%) were called active. Not shown: some 18% with an inconclusive outcome. Some of the results follow.
Recorded normalized growth for the following compounds
Answer as a number with no unit attached.

A selection of reference data follows.
{"Compound": "O=C(O)COc1cc(Cl)c(Cl)cc1Cl", "normalized growth": 1.02}
{"Compound": "COC(=O)[C@@H]1C(O)CC[C@H]2CN3CCc4c([nH]c5ccccc45)[C@@H]3C[C@@H]21 (stereo not given in full)", "normalized growth": 0.971}
{"Compound": "CC[C@H]1OC(=O)C[C@@H](O)[C@H](C)[C@@H](O[C@@H]2O[C@H](C)[C@@H](O[C@H]3C[C@@](C)(O)[C@@H](O)[C@H](C)O3)[C@H](N(C)C)[C@H]2O)[C@@H](CC=O)C[C@@H](C)C(=O)/C=C/C(C)=C/[C@@H]1CO[C@@H]1O[C@H](C)[C@@H](O)[C@@H](OC)[C@H]1OC", "normalized growth": 1.01}
{"Compound": "CNc1ccccc1C(=O)N1CCc2c([nH]c3ccccc23)C1=O", "normalized growth": 0.944}

Value of normalized growth reported for the compound CN1C2CC3C[C@H]1C(O3)C2O (stereo not given in full) is 0.99

---

Quick reference for normalized growth among some compounds
# Experiment notes: chemical genetic growth profiling, strain panel (AID 1159580);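 further: tested at 20 µM; growth read once vehicle control cultures reached saturation at 30 °C; 1 = growth at the plate median or of vehicle wells; lower values mean less growth of the strain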
# Test parameters: S. cerevisiae deletion strains, growth OD, locus YDL134C, strain PPH21, hits give low values
About 2,000 (36%) of roughly 5,500 compounds were called active. Roughly 18% stayed inconclusive and do not appear here. The list shows a part of the results.

{"Compound": "CC1(C)/C(=N/OC(=O)c2cccc(C(F)(F)F)c2)[C@]2(C)CCC1C2", "normalized growth": "1 (inactive)"}
{"Compound": "COc1ccc(CC2c3cc(OC)c(OC)cc3CCN2C)cc1OC (stereo not given)", "normalized growth": "0.981 (inactive)"}
{"Compound": "CN(C)/C=C1\\C(=O)c2ccccc2N(C)S1(=O)=O", "normalized growth": "0.987 (inactive)"}
{"Compound": "COc1ccc2c(c1)OC[C@@H](Cc1ccc(OC)c(OC)c1)[C@@H]2O", "normalized growth": "1 (inactive)"}

Consider the additional compound presented here.
For "CC(=C(CCOP(=O)(O)O)SC(=O)c1ccccc1)N(C=O)Cc1cnc(C)nc1N" the compound record lists normalized growth as 1.02 (inactive)

---

# Experiment notes: chemical genetic growth profiling, strain panel (AID 1159580);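 further: tested at 20 µM; growth read once vehicle control cultures reached saturation at 30 °C; 1 = growth at the plate median or of vehicle wells; lower values mean less growth of the strain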
# Test parameters: S. cerevisiae deletion strains, growth OD, locus YML120C, strain ndi1
In all, about 5,500 compounds went through this assay and about 2,000 (36%) were called active. Not shown: some 18% with an inconclusive outcome. Rule as the data show it: active = normalized growth mostly below about 0.91 (no sharp cut-off); inconclusive = no clear call, values can overlap the other calls; inactive = mostly above about 0.92. Some of the results follow.
Bench note: report the call from yes (1) (active), no (0) (inactive)

{"Molecule": "C=CC1=C(C(=O)O)N2C(=O)[C@@H](NC(=O)/C(=N/O)c3csc(N)n3)[C@H]2SC1", "Category": "no (0)"}

Task: Per the assay record, what outcome was assigned to "CC(C)[C@H](N)C(=O)OCCOCn1cnc2c(=O)[nH]c(N)nc21" ?
Result: no (0)

Task: Which result was noted for this molecule in the test: "COc1ccc2cc1Oc1ccc(cc1)C[C@H]1c3cc(c(OC)cc3CCN1C)Oc1c(OC)c(OC)cc3c1[C@H](C2)N(C)CC3"
Result: no (0)

Task: // outcome(item) with item = "O=C(/C=C/c1ccccc1)O[C@H]1C[C@@H](O)[C@]2(O)C=CO[C@@H](O[C@@H]3O[C@H](CO)[C@@H](O)[C@H](O)[C@H]3O)[C@H]12"
Result: no (0)

Task: Called result for "CC(C)(N=NC(C)(C)C(=N)N)C(=N)N"
Result: no (0)

Task: Field: outcome | Entry: CC(=O)O[C@]1(C(C)=O)CCC2C3C=C(C)C4=CC(=O)CCC4(C)C3CCC21C (stereo not given in full)
Result: yes (1)

Task: What call does the record list for "CCN(CC)C(=S)SSC(=S)N(CC)CC" ?
Result: yes (1)

Task: Per the records of this test, what outcome belongs to "C[N+](C)(C)CC(=O)[O-]" ?
Result: no (0)

Task: Which result was noted for this molecule in the test: "COc1ccc(-c2cc(=O)c3c(O)cc(OC)c(OC)c3o2)c(OC)c1"
Result: no (0)

Task: Could you kindly confirm the outcome this assay logged for "CC(C)=CCc1c(O)cc2oc(C)cc(=O)c2c1O" ?
Result: no (0)

Task: Entry "COc1ccc2c(c1)OC[C@@H](Cc1ccc(OC)c(OC)c1)[C@@H]2O" : call = ?
Result: no (0)

Task: How did this test come out for "COc1c2c(c(CC=C(C)C)c3oc(=O)c(-c4ccc(O)cc4)c(O)c13)OC(C)(C)C=C2" ?
Result: yes (1)

Task: Check the results log: what was the call for CC(=O)O[C@]1(C(C)=O)CCC2C3C=C(Cl)C4=CC(=O)CC[C@]4(C)C3CC[C@@]21C (stereo not given in full) ?
Result: no (0)

Task: Tell me the recorded outcome of this test for "NC/C=C/C(=O)O" .
Result: no (0)

Task: Which outcome was assigned to CC(=O)[C@H]1CCC2C3C[C@H](C)C4=CC(=O)CC[C@]4(C)C3[C@@H](O)C[C@@]21C (stereo not given in full) in this test?
Result: no (0)

Task: Answer briefly: the call reported for "CC(C)[N+](C)(CCOC(=O)C1c2ccccc2Oc2ccccc21)C(C)C" in this assay.
Result: no (0)
